The following compounds are listed with their measured GI50 values.
System: SF-268
assayOverview: NCI tumour cell line growth inhibition, 48 h
Activity calls are given as the source filed them. No stated cut-off is given here; in the data, active = GI50 up to about 1.1 µM and inactive = higher.

Prompt line: Look up GI50: Cc1oc2c(cc(O)c3ccccc32)c2cccc1-2
Response line: > 100 µM (inactive)

Prompt line: Next: COc1ccc2c(c1)c[n+](C)c1c3cc(OC)c(OC)cc3ccc21
Response line: 2.75 µM (inactive)

====

The following compounds are listed with their measured GI50 values.
Test system: Malme-3M
assayOverview: NCI tumour cell line growth inhibition, 48 h
Calls of active or inactive are those of the source. Cut-off read from the data, not from the text of the source: active = GI50 up to about 1.1 µM and inactive = higher.

{"compound": "Cc1ccc(NC(=O)/C(Cc2cc(=O)oc3cc(O)ccc23)=N\\NC(=O)C[N+](C)(C)C)cc1C", "GI50": "> 100 µM (inactive)"}
{"compound": "CC1(C)OC2C(COC(c3ccccc3)(c3ccccc3)c3ccccc3)OC(c3c[nH]c4c(N)ncnc34)C2O1 (stereo not given)", "GI50": "4.92 µM (inactive)"}
{"compound": "C=C(C)[C@H]1C2=CC(C)=C(O2)[C@@H](O[C@@H]2c3oc(cc3C)[C@H](C(=C)C)[C@H]3C=C(CC[C@H]2C(=C)C)C(=O)O3)[C@H](C(=C)C)CCC2=C[C@H]1OC2=O", "GI50": "> 100 µM (inactive)"}

Prompt line: Observed GI50 on Malme-3M for CC(C)OP(=O)(OC(C)C)/C(F)=N/Nc1ccc([N+](=O)[O-])cc1 , please.
Response line: > 100 µM (inactive)

Prompt line: Next: COC1(O)c2cccc(Cl)c2C(=O)N1C1(C(N)=O)CCCCC1 (stereo not given)
Response line: > 100 µM (inactive)

Where do the numbers come from? From ChEMBL document CHEMBL1201862.
